method-summary: Tmax in chimpanzee at 4 mg/kg, po
Type: ADME, organism-based, Pan troglodytes
Set-up: dose 4 mg/kg, route oral
condition-set: in vivo
measured-endpoint: Tmax (h)
Numeric only. Scale: h

[in] Which Tmax is listed for `COc1ccc([C@]2(O)CC[C@H](N3CC[C@@H](NC(=O)CNC(=O)c4cccc(C(F)(F)F)c4)C3)CC2)cn1.CS(=O)(=O)O` ?
[out] 2

---

experimental-target: C-C chemokine receptor type 2 (Homo sapiens)
Sequence (P41597 whole entry): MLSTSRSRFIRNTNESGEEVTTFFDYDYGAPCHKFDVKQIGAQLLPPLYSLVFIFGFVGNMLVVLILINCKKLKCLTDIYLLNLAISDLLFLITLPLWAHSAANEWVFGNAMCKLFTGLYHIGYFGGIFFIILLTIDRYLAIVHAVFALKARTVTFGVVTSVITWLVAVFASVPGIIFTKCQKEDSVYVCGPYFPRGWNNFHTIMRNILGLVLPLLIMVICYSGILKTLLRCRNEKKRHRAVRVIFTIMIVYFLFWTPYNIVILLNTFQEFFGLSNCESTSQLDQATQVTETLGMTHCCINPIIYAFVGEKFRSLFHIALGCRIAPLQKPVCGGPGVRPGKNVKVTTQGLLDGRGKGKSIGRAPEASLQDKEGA
method-summary: Inhibition of human CCR2-mediated Erk phosphorylation
measured-endpoint: IC50 (nM)
// units = nM; emit number, no label

[in] Quick one: IC50 for `COc1ccc([C@]2(O)CC[C@H](N3CC[C@@H](NC(=O)CNC(=O)c4cccc(C(F)(F)F)c4)C3)CC2)cn1.CS(=O)(=O)O` ?
[out] 2.6
